assay notes: Hepatocyte stability (parent drug disappearance in cryopreserved hepatocytes)
Type: in vitro ADME, human
condition parameters: human, cryopreserved human hepatocytes, 2 μM substrate, 37° C.; Table 2a
reported property: half-life at 2 μM (min)
Please state the figure in min; there is no need to write the unit.

{"compound": "C[C@H](Nc1nc(N)nc(N)c1C#N)c1nc2c(Cl)ccc(Cl)c2c(=O)n1-c1ccc(N)nc1", "readout value": 600}

Here is the next item to consider.
Reported half-life at 2 μM of Cc1cc(N)ncc1-n1c([C@H](C)Nc2nc(N)nc(N)c2C#N)nc2c(Cl)ccc(Cl)c2c1=O (atropisomer, axis not shown) : 240

###

molecules and their reported half-life at 2 μM
assay notes: Hepatocyte stability (parent drug disappearance in cryopreserved hepatocytes)
Type: in vitro ADME, human
condition parameters: human, cryopreserved hepatocytes, human hepatocytes; comparison Table 4

{"molecule": "C[C@H](Nc1ncnc(N)c1C#N)c1nc2cccc(Cl)c2c(=O)n1-c1ccccc1 [Compound Y, reference compound]", "half-life at 2 μM": "< 120 min"}

Reported half-life at 2 μM of C[C@H](Nc1nc(N)nc(N)c1C#N)c1nc2cccc(Cl)c2c(=O)n1-c1ccccc1 [Compound Z, reference compound] : < 300 min

Reported half-life at 2 μM of C[C@H](Nc1ncnc2[nH]cnc12)c1nc2cccc(Cl)c2c(=O)n1-c1ccccc1 [Compound X, reference compound] : < 120 min

###

assay notes: Hepatocyte stability (parent drug disappearance in cryopreserved hepatocytes)
Type: in vitro ADME, human
condition parameters: human, cryopreserved human hepatocytes, human hepatocytes, 2 μM substrate, 37° C.; Table 3
reported property: half-life at 2 μM

Reported half-life at 2 μM of C[C@H](Nc1nc(N)nc(N)c1C#N)c1nc2cccc(Cl)c2c(=O)n1-c1cncc(F)c1 : > 600 min

Reported half-life at 2 μM of Cc1c(F)cncc1-n1c([C@H](C)Nc2nc(N)nc(N)c2C#N)nc2cccc(Cl)c2c1=O (atropisomer, axis not shown) : 480 min

Reported half-life at 2 μM of Cc1cccc2nc([C@H](C)Nc3nc(N)nc(N)c3C#N)n(-c3cncc(F)c3)c(=O)c12 : 300 min

Reported half-life at 2 μM of C[C@H](Nc1nc(N)nc(N)c1C#N)c1nc2cccc(C(F)(F)F)c2c(=O)n1-c1cccnc1 : > 600 min

Reported half-life at 2 μM of C[C@H](Nc1nc(N)nc(N)c1C#N)c1nc2cccc(Cl)c2c(=O)n1-c1cccnc1 : > 600 min

Reported half-life at 2 μM of CC[C@H](Nc1nc(N)nc(N)c1C#N)c1nc2cccc(Cl)c2c(=O)n1-c1cccnc1 : > 600 min

Reported half-life at 2 μM of C[C@H](Nc1nc(N)nc(N)c1C#N)c1nc2c(Cl)cccc2c(=O)n1-c1cccnc1 : 540 min

###

assay notes: Hepatocyte stability (parent drug disappearance in cryopreserved hepatocytes)
Type: in vitro ADME, human
condition parameters: human, cryopreserved human hepatocytes, human hepatocytes, 2 μM substrate, 37° C.; Table 3
reported property: half-life at 2 μM

Reported half-life at 2 μM of C[C@H](Nc1nc(N)nc(N)c1C#N)c1nc2c(Cl)ccc(Cl)c2c(=O)n1-c1cncc(F)c1 : 9 h

Reported half-life at 2 μM of Cc1ccncc1-n1c([C@H](C)Nc2nc(N)nc(N)c2C#N)nc2cccc(Cl)c2c1=O (atropisomer, axis not shown) : > 10 h

Reported half-life at 2 μM of CC[C@H](Nc1nc(N)nc(N)c1C#N)c1nc2c(F)ccc(Cl)c2c(=O)n1-c1cccnc1 : > 10 h

Reported half-life at 2 μM of Cc1cncc(-n2c([C@H](C)Nc3nc(N)nc(N)c3C#N)nc3c(F)ccc(Cl)c3c2=O)c1 : > 10 h

Reported half-life at 2 μM of C[C@H](Nc1nc(N)nc(N)c1C#N)c1nc2cccc(Cl)c2c(=O)n1-c1cncc(C(F)F)c1 : > 10 h

###

study system: PI3Kδ (Homo sapiens (Human))
assay notes: Enzymatic activity of PI3K isoforms, TR-FRET assay (PI3Kδ)
condition parameters: 2× Km ATP, geometric mean if more than one value
Experimental: Enzymatic activity of the class I PI3K isoforms in the presence of the compounds of Table 1 and Compounds X, Y and Z was measured using a time-resolved fluorescence resonance energy transfer (TR-FRET) assay. […] Data were normalized based on positive ([…] wortmanin) and negative (DMSO) controls. α, β, δ, and γ IC50 values were calculated from the fit of the dose-response curves to a four-parameter equation. […]
reported property: pIC50
On this scale, pIC50 is minus log10 of a concentration expressed in M (mol/L).

Example results:
{"compound": "Cc1ccncc1-n1c([C@H](C)Nc2nc(N)nc(N)c2C#N)nc2cccc(Cl)c2c1=O (atropisomer, axis not shown) [Compound 41]", "pIC50": 9.40}
{"compound": "CC[C@H](Nc1nc(N)nc(N)c1C#N)c1nc2cccc(Cl)c2c(=O)n1-c1ccc(N)nc1", "pIC50": 9.22}
{"compound": "C[C@H](Nc1nc(N)nc(N)c1C(N)=O)c1nc2cccc(Cl)c2c(=O)n1-c1cccnc1", "pIC50": 8.70}

Here is the next item to consider.
Reported pIC50 of CC[C@H](Nc1nc(N)nc(N)c1Cl)c1nc2cccc(Cl)c2c(=O)n1-c1ccc(N)nc1 : 8.05

###

Test system: basophils
assay notes: Basophil activation in human whole blood (Flow2 CAST kit, CD63 flow cytometry)
Format: cell-based
condition parameters: basophil activation in human whole blood; comparison Table 4
pEC50: −log10 of the molar value.
reported property: pEC50

Reported pEC50 of C[C@H](Nc1nc(N)nc(N)c1C#N)c1nc2cccc(Cl)c2c(=O)n1-c1ccccc1 [Compound Z, reference compound] : > 9.00

###

System: basophils
assay notes: Basophil activation in human whole blood (Flow2 CAST kit, CD63 flow cytometry)
Format: cell-based
condition parameters: class symbol; human whole blood, basophils activated with anti-FcεRI mAb or fMLP, percent CD63 positive cells
pEC50: −log10 of the molar value.
compounds and their reported pEC50

Reported pEC50 of Cc1ncccc1-n1c([C@H](C)Nc2nc(N)nc(N)c2C#N)nc2cccc(Cl)c2c1=O (atropisomer, axis not shown) [Compound 39] : 8.00 to 9.00

Reported pEC50 of Cc1ccncc1-n1c([C@H](C)Nc2nc(N)nc(N)c2C#N)nc2cccc(Cl)c2c1=O (atropisomer, axis not shown) [Compound 41] : 8.00 to 9.00

Reported pEC50 of Cc1ccncc1-n1c([C@H](C)Nc2nc(N)nc(N)c2C#N)nc2ccc(F)c(Cl)c2c1=O (atropisomer, axis not shown) [Compound 43] : 8.00 to 9.00

###

study system: PI3Kδ (Homo sapiens (Human), UniProt O00329)
Sequence (O00329 whole entry, canonical isoform): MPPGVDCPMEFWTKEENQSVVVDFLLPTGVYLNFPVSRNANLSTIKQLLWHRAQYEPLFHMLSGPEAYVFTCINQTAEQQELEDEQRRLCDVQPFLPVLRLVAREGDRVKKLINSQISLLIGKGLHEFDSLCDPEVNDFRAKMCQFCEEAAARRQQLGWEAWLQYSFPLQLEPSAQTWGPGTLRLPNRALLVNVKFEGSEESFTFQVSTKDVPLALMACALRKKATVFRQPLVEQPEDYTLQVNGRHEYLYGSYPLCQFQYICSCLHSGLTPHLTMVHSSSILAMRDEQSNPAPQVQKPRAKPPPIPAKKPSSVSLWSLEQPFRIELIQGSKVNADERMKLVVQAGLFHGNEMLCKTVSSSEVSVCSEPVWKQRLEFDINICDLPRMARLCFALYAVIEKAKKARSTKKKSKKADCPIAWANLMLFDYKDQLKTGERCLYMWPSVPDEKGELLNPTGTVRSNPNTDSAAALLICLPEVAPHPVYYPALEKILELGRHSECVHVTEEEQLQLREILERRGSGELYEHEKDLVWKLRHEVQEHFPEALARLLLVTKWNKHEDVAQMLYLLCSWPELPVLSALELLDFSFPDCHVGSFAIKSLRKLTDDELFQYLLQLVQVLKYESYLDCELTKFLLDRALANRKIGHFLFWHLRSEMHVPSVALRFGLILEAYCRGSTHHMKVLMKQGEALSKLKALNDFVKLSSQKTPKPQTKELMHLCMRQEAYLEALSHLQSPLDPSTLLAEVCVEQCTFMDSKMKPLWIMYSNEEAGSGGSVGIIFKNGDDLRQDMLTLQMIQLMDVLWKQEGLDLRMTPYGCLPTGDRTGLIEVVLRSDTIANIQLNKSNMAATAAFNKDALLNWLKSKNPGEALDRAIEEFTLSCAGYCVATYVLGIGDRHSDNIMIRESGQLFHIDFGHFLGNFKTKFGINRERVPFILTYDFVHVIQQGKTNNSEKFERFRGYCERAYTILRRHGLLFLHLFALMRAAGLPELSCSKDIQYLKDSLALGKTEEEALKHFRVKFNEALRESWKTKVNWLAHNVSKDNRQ
Sequence (P27986 whole entry partner, canonical isoform): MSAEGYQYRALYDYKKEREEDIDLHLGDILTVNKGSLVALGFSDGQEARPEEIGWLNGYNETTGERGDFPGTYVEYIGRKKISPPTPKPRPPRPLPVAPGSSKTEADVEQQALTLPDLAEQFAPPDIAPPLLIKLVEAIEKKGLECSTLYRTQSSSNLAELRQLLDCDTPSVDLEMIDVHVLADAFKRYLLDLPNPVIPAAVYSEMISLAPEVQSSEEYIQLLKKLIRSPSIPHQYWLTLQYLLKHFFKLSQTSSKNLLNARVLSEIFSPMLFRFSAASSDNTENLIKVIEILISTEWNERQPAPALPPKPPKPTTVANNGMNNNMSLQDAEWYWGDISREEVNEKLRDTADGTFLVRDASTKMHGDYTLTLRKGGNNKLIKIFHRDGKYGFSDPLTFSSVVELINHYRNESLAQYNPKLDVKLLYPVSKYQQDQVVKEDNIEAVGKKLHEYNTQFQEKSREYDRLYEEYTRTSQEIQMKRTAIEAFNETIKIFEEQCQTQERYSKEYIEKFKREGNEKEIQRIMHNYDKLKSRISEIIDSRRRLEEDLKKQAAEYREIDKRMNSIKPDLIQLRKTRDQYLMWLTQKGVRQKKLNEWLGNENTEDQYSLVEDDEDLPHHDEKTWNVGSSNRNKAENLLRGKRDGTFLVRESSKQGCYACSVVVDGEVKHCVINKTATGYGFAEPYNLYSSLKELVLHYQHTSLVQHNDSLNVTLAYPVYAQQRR
assay notes: Enzymatic activity of PI3K isoforms, TR-FRET assay (PI3Kδ)
condition parameters: 2× Km ATP, geometric mean if more than one value
compounds and their reported IC50
Please state the figure in nM; there is no need to write the unit.

{"compound structure string": "C[C@H](Nc1nc(N)nc(N)c1C#N)c1nc2cccc(S(C)(=O)=O)c2c(=O)n1-c1cccnc1", "output unit": "nM", "IC50": 9}
{"compound structure string": "N#Cc1c(N)nc(N)nc1N[C@@H](CC1CC1)c1nc2c(F)ccc(Cl)c2c(=O)n1-c1cccnc1", "output unit": "nM", "IC50": 8}

Here is the next item to consider.
Reported IC50 of C[C@H](Nc1nc(N)nc(N)c1C#N)c1nc2c(Cl)cccc2c(=O)n1-c1cccnc1 : 6

###

Test system: basophils
assay notes: Basophil activation in human whole blood (Flow2 CAST kit, CD63 flow cytometry)
Assay type: cell-based
condition parameters: Homo sapiens, human whole blood, basophils activated with anti-FcεRI mAb or fMLP, percent CD63 positive cells, geometric mean
reported property: EC50 (nM)
Please state the figure in nM; there is no need to write the unit.

{"compound": "C[C@H](Nc1nc(N)nc(N)c1C#N)c1nc2cccc(Cl)c2c(=O)n1-c1cccnc1 [Compound 1]", "readout value": 0.9}
{"compound": "N#Cc1c(N)nc(N)nc1N[C@@H](CC1CC1)c1nc2c(F)ccc(Cl)c2c(=O)n1-c1cccnc1 [Compound 29]", "readout value": 10}
{"compound": "C[C@H](Nc1nc(N)nc(N)c1C#N)c1nc2cccc(C#N)c2c(=O)n1-c1cccnc1 [Compound 10]", "readout value": 17}
{"compound": "C[C@H](Nc1nc(N)nc(N)c1C#N)c1nc2c(Cl)ccc(Cl)c2c(=O)n1-c1cncc(F)c1 [Compound 30]", "readout value": 0.7}
{"compound": "CC[C@H](Nc1nc(N)nc(N)c1C#N)c1nc2c(F)ccc(Cl)c2c(=O)n1-c1cccnc1 [Compound 26]", "readout value": 0.7}
{"compound": "C[C@H](Nc1nc(N)nc(N)c1C#N)c1nc2c(F)ccc(F)c2c(=O)n1-c1cccnc1 [Compound 25]", "readout value": 11}

Here is the next item to consider.
EC50 of C[C@H](Nc1nc(N)nc(N)c1C#N)c1nc2cccc(Cl)c2c(=O)n1-c1cncc(F)c1 [Compound 12] , assay on basophils, is 1
